protocol summary: Pharmacokinetics study in plasma of ICR mice, intravenous or oral administration
Assay type: in vivo
run parameters: mouse, 1 mg/kg; IV, 1 mpk, male ICR mice, plasma
measurement label: AUC (µM·h)

molecule: C=CC(=O)N1C[C@H](C)N(c2nc(OC[C@@H]3CCCN3C)nc3c(=O)n(-c4cccc5cccc(Cl)c45)c(C(F)(F)F)nc23)[C@@H](C)C1 (single isomer, unassigned)
measurement label: AUC
unit name: µM·h
numeric value: 0.993

* * *

target or system: KRAS G12C (Homo sapiens, UniProt P01116, G12C)
Sequence (P01116 1-169 isoform P01116-2 G12C): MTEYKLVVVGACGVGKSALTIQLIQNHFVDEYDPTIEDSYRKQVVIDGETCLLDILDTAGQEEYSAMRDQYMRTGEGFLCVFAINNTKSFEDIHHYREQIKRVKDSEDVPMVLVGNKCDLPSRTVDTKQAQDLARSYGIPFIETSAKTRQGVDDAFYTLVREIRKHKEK
protocol summary: KRAS G12C nucleotide exchange assay (SOS1-mediated, mant-GDP fluorescence)
Format: biochemical
Set-up: KRas(1-169) G12C protein
run parameters: 15 min pre-incubation
pIC50: −log10 of the molar value.
// NOT MET strictly below 6 in pIC50; MET otherwise

molecule: C=CC(=O)N1CCN(c2nc(OC[C@@H]3CCCN3C)nc3c(=O)n(-c4cccc5cccc(C(=C)C)c45)c(C)nc23)C[C@@H]1CC#N [Compound 11]
group: NOT MET
--
molecule: C=CC(=O)N1CCN(c2nc(OC[C@@H]3CCCN3C)nc3c(=O)n(-c4c(C)ccc5[nH]ncc45)c(C)nc23)CC1 [Compound 22]
group: NOT MET
--
molecule: C=CC(=O)N1CCN(c2nc(OC[C@@H]3CCCN3C)nc3c2CCCC(c2c(C)ccc4[nH]ncc24)C3)CC1 (stereo partly shown) [Compound 20]
group: NOT MET
--
molecule: C=CC(=O)N1CCN(c2nc(OC[C@@H]3CCCN3C)nc3c(=O)n(-c4cccc5cccc(Cl)c45)c(C(F)(F)F)nc23)C[C@@H]1CC#N [Example 31]
group: MET
--
molecule: C=CC(=O)N1CCN(c2nc(OC[C@@H]3CCCN3C)nc3c(=O)n(-c4cccc5ccccc45)c(-c4ccccc4)nc23)C[C@@H]1CC#N [Compound 17]
group: MET
--
molecule: C=CC(=O)N1CCN(c2nc(OC[C@@H]3CCCN3C)nc3c(=O)n(-c4cccc5ncccc45)c(C)nc23)C[C@@H]1CC#N [Compound 15]
group: NOT MET
--
molecule: C=CC(=O)N1CCN(c2nc(OC[C@@H]3CCCN3C)nc3c(=O)n(-c4cccc5cccc(Cl)c45)c(C)nc23)CC1 [Compound 3]
group: NOT MET
--
molecule: C=CC(=O)N1CCN(c2nc(OC[C@@H]3CCCN3C)nc3c(=O)n(-c4cccc5ccccc45)c(C)nc23)CC1 [Example 1]
group: NOT MET

Where do these numbers come from? They come from patent US20230212170A1.
